Test system: EW-18 (Ewing's Sarcoma);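 note: after 72 h of two-drug dosing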
Assay overview: Bliss excess, mean over the matrix (fraction); higher = more synergy

| Compound | Bliss excess |
| --- | --- |
| C=CCn1c(=O)c2cnc(Nc3ccc(N4CCN(C)CC4)cc3)nc2n1-c1cccc(C(C)(C)O)n1 [AZD1775] + C[C@@H]1COCCN1C2=NC(=NC(=C2)C3(CC3)[S@](=N)(=O)C)C4=C5C=CNC5=NC=C4 [AZD6738] (first compound max 1 µM, partner max 10 µM) | -0.0198 |
| CN(CCO)CC[C@H](CSc1ccccc1)Nc1ccc(S(=O)(=O)NC(=O)c2ccc(N3CCC([C@@H](O)c4ccccc4-c4ccc(Cl)cc4)CC3)cc2)cc1S(=O)(=O)C(F)(F)F [AZD4320] + C=CCn1c(=O)c2cnc(Nc3ccc(N4CCN(C)CC4)cc3)nc2n1-c1cccc(C(C)(C)O)n1 [AZD1775] (first compound max 1 µM, partner max 1 µM) | 0.0349 |
| CC(=O)c1c(C)c2cnc(Nc3ccc(N4CCNCC4)cn3)nc2n(C2CCCC2)c1=O [Palbociclib] + CN(CC[C@H](CSC1=CC=CC=C1)NC2=C(C=C(C=C2)S(=O)(=O)NC(=O)C3=CC=C(C=C3)N4CCC(CC4)[C@H](C5=CC=CC=C5C6=CC=C(C=C6)Cl)O)S(=O)(=O)C(F)(F)F)CCO [AZD4320] (first compound max 10 µM, 7x7, partner max 1 µM) | -0.0118 |
| Cc1c2c(nn1C)CSCc1cc(n(C)n1)CSc1cc(c3ccccc3c1)OCCCc1c(C(=O)O)n(C)c3c-2c(Cl)ccc13 [AZD5991] + C=CCn1c(=O)c2cnc(Nc3ccc(N4CCN(C)CC4)cc3)nc2n1-c1cccc(C(C)(C)O)n1 [AZD1775] (first compound max 1 µM, partner max 1 µM) | -0.0102 |
| CC(=O)Nc1cccc(-n2c(=O)n(C3CC3)c(=O)c3c(Nc4ccc(I)cc4F)n(C)c(=O)c(C)c32)c1 [Trametinib] + Cc1nc(-c2cn3c(n2)-c2ccc(-c4cnn(C(C)(C)C(N)=O)c4)cc2OCC3)n(C(C)C)n1 [Taselisib] (first compound max 1 µM, 7x7, partner max 10 µM) | 0.0163 |
